- ASSAY: HepG2 cytotoxicity, primary screen, cytotoxicity control for P. falciparum antimalarial project, cell-based, ATP luminescence (AID 2303);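 further: 0% = DMSO wells and 100% = digitonin-killed cells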
- MEASUREMENT_PARAMETERS: HepG2 viability, 24-48 h, at 10 µM, active compounds read high
Binarize inhibition at 30%; below is rule met, at or above is rule not met.

Enquiry: In the record for N#Cc1ccc(NC(=O)Nc2ccc3c(c2)CCN(C2CCC2)CC3)cc1 , is inhibition less than 30%?
Return: rule met

Enquiry: In the record for O=[N+]([O-])c1ccc(/C=N/Nc2cc(-c3ccccc3)nc3ccccc23)o1 , is inhibition less than 30%?
Return: rule not met

Enquiry: In the record for CC(C)N1CCN(C(CN2CCN(CCCOc3ccc4ccccc4c3)CC2)c2ccc(F)cc2)CC1 (stereo not given) , is inhibition less than 30%?
Return: rule not met

Enquiry: In the record for CCC(C)NC(=O)CN1CN(c2ccccc2)C2(CCN(C(=O)c3ccc4ccccc4c3)CC2)C1=O (stereo not given) , is inhibition less than 30%?
Return: rule met

Enquiry: In the record for CCOC(=O)C1CCN(CCOc2cc(NC(=O)/C=C/c3ccccc3Cl)ccc2Br)CC1 , is inhibition less than 30%?
Return: rule met

Enquiry: In the record for CCCCCc1ccc(N2C(N)=NC(N)=NC2(C)C)cc1 , is inhibition less than 30%?
Return: rule not met

Enquiry: In the record for COc1ccc(-c2cccc(NC(=O)c3cccc(C#N)c3)c2)cc1CN(C)CCN(C)C , is inhibition less than 30%?
Return: rule met

Enquiry: In the record for CCCNCc1ccc(-c2ccc(CN(CCOC)C(=O)CCCOCc3ccccc3)cc2)nc1 , is inhibition less than 30%?
Return: rule met

Enquiry: In the record for COCc1ccc(CN2CCC(C(=O)Nc3ccc(-c4nc5ccccc5[nH]4)cc3)CC2)o1 , is inhibition less than 30%?
Return: rule met

Enquiry: In the record for Cn1c2c(c3ccccc31)CN(CCC1(c3ccc(Cl)c(Cl)c3)CN(C(=O)c3ccccc3)CCO1)CC2 (stereo not given) , is inhibition less than 30%?
Return: rule met

Enquiry: In the record for CC1CN(Cc2ccc(-c3cccc(-c4nc5ccc(F)cc5[nH]4)c3)cc2)CC(C)O1 (stereo not given) , is inhibition less than 30%?
Return: rule met

Enquiry: In the record for Cc1ccc(Nc2ccnc(Nc3ccc(F)c(Cl)c3)n2)cc1O , is inhibition less than 30%?
Return: rule met

Enquiry: In the record for CC(C)(C)OC(=O)NCCc1cccc(-c2c[nH]c3ncc(-c4cccc(NS(C)(=O)=O)c4)cc23)c1 , is inhibition less than 30%?
Return: rule met

Enquiry: In the record for COc1ccccc1CCCON1C(N)=NC(N)=NC1(C)C , is inhibition less than 30%?
Return: rule not met

Enquiry: In the record for C[C@H](NC(=O)c1c(CN2CCC(N3CCCCC3=O)CC2)c(-c2cccs2)nc2ccccc12)C1CCCCC1 , is inhibition less than 30%?
Return: rule met

====

Please respond with reported growth inhibition for every item in the list.
- ASSAY: inhibition of 3D7 malaria parasite growth – strain 3D7 (AID 2306);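 further: 0% = DMSO wells and 100% = chloroquine plus artemisinin control wells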
- MEASUREMENT_PARAMETERS: P. falciparum 3D7 erythrocytic growth, LDH absorbance, 72 h; at 2 µM; active compounds read high
Response body: numeric value in %, unit text excluded.

Enquiry: Requested field: growth inhibition. Item: COC(=O)c1cccc(CNCc2ccc(-c3ccc(-c4nc5ccc(C(F)(F)F)cc5[nH]4)cc3)cc2)c1
Return: 101

Enquiry: Requested field: growth inhibition. Item: Cc1cccc2[nH]c(-c3cccc(-c4ccc(CNCc5cnn(-c6ccccc6)n5)cc4)c3)nc12
Return: 102

Enquiry: Requested field: growth inhibition. Item: NC(N)=NN=Cc1ccc2c(ccc3ccccc32)c1
Return: 100

Enquiry: Requested field: growth inhibition. Item: CC1(C)N=C(NC(=O)c2ccc([N+](=O)[O-])cc2)N=C(N)N1OCc1ccc2ccccc2c1
Return: 95

Enquiry: Requested field: growth inhibition. Item: COc1ccc(C(=O)NCc2ccc(N)nc2C)cc1Nc1ncc(-c2cccc(N(C)C)c2)cn1
Return: 89

Enquiry: Requested field: growth inhibition. Item: CCCOc1cc(OCCC)cc(-c2cc(=O)c3ccccc3[nH]2)c1
Return: 99

Enquiry: Requested field: growth inhibition. Item: COc1cccc(CN2CCC3(CC2)CN(C(=O)Nc2ccc(Cl)c(Cl)c2)C3)c1
Return: 97

Enquiry: Requested field: growth inhibition. Item: O=C(Nc1cccc(CN2CCCN(Cc3cccc(O)c3)CC2)c1)c1ccc(Cl)c(Cl)c1
Return: 102

Enquiry: Requested field: growth inhibition. Item: O=C(Nc1cccc(-c2cccc(-c3nc4ccc(C(F)(F)F)cc4[nH]3)c2)c1)c1cccnc1
Return: 100

Enquiry: Requested field: growth inhibition. Item: COc1ccc2nccc([C@@H](O)CN3CCC(NCc4cc5c(Cl)cccc5[nH]4)CC3)c2c1
Return: 101

Enquiry: Requested field: growth inhibition. Item: Cc1ccccc1C1CCN(c2ncc(C(=O)Nc3ccccc3)cc2Cl)CC1
Return: 83

Enquiry: Requested field: growth inhibition. Item: Cc1cccc2[nH]c(-c3ccc(-c4ccc(NC(=O)NCc5cccc(F)c5)cc4)cc3)nc12
Return: 97

Enquiry: Requested field: growth inhibition. Item: CCOc1ccc(-c2nc(NC(=O)CS(=O)(=O)c3ccccc3)sc2C)cc1
Return: 100

Enquiry: Requested field: growth inhibition. Item: COc1ccc(NC(=O)[C@H](Cc2ccccc2)Nc2cc(C)nc(NCCc3ccccc3)n2)cc1
Return: 98
